# credit: PubChem BioAssay AID485346

- measured.target: Protein Mdm4 (Homo sapiens) + E3 ubiquitin-protein ligase Mdm2 (Homo sapiens) (UniProt O15151+Q00987)
- Sequence (O15151 whole entry, looked up): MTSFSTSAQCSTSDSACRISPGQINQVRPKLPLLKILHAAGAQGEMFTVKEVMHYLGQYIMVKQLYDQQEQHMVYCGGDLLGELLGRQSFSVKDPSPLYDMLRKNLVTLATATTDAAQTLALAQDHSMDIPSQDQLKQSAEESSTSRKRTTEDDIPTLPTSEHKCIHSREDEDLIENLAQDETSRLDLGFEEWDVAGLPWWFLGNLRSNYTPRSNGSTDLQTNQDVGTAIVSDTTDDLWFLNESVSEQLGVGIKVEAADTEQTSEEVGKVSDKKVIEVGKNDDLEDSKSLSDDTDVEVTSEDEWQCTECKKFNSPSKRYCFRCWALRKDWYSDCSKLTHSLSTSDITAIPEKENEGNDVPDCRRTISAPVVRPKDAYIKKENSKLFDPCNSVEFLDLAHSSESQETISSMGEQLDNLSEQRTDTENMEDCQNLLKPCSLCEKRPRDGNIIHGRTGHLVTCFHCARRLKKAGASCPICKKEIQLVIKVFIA
- Sequence (Q00987 whole entry, looked up): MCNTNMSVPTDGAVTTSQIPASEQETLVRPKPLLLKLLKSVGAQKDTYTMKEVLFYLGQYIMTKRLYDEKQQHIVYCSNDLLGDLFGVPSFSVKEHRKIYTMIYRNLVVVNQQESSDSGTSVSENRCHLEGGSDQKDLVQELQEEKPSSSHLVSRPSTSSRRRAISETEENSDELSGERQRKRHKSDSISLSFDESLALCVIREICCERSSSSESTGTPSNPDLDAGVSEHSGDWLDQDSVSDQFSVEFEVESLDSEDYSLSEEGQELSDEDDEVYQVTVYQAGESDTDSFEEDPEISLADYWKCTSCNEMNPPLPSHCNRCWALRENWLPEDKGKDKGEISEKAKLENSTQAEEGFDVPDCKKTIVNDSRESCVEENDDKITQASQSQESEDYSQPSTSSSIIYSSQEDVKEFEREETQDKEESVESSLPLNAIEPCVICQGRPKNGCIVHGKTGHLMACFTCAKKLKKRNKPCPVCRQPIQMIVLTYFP
- protocol.summary: inhibitors of human Mdm2-MdmX association, primary screen, cell-based, luminescence, split luciferase, SaOS-2, uHTS (AID 485346)
- recorded.conditions: SaOS-2 split-luciferase Mdm2/MdmX complementation, at 8 µM, active compounds read high
The whole screen tested about 330,000 compounds, of which about 10,000 (3%) were called active. This excerpt belongs to a sample that is enriched for actives.
Listed below: inhibition values for each entry.

compound	inhibition, %
COc1ccc(-c2cc(-c3ccc(N)cc3)nc(N)c2C#N)cc1OC	32.6
Cc1nc(N2CCN(c3ccccn3)CC2)c2c(C)c(C(=O)Nc3ccc(F)c(Cl)c3)sc2n1	61.2
CCn1c(CSCc2c(Cl)cccc2Cl)n[nH]c1=S	7.91
O=C(NC1(C(F)(F)F)NC(=O)N(Cc2cccnc2)C1=O)c1ccccc1Cl (centres undefined)	1.79
Cc1cc(NC(=O)CCC(=O)N(c2cccc(F)c2)C(C(=O)NC2CCCC2)c2ccncc2)no1 (centres undefined)	-20
Cc1cc(S(=O)(=O)N2CCOCC2)ccc1OCC(=O)N1CCOCC1	-24.7
Cc1cc(NC(=O)/C=C/C(=O)N(c2ccccc2C)C(C(=O)NC2CCCC2)c2ccc(F)cc2)no1 (centres undefined)	63.1
CCOC(=O)N1CCN(C(=O)C(=O)Nc2sc3c(c2C#N)CC(C)(C)OC3)CC1	13.5
Cc1cc(C(=O)COc2ccccc2[N+](=O)[O-])c(C)n1-c1cccc(S(=O)(=O)N2CCOCC2)c1	71.1
